// data source = ChEMBL document CHEMBL3992529

Tested on: K562
assay explanation: Cytotoxicity against human K562 cells measured after 72 hrs by MTT assay
Assay type: functional, cell-based
measurement conditions: K562, 72 h
Item-by-item account of log10 of IC50
parameter measured: log10 of IC50 (log10 of the value in µM)

- compound: "C#CCCCCCCCCC(=O)OCC[C@@H]1C(=O)NC(=C)/C=C/C(=O)N[C@H](C)C(=O)N[C@@H](C(C)C)C(=O)O[C@H]1[C@H](C)CCCCCC"
  log10 of IC50: 0.64
- compound: "C=C1/C=C/C(=O)N[C@@H](C)C(=O)N[C@H](C(C)C)C(=O)O[C@@H]([C@H](C)CCCCCC)[C@H](CCO[Si](c2ccccc2)(c2ccccc2)C(C)(C)C)C(=O)N1"
  log10 of IC50: -0.06
- compound: "C=C1/C=C/C(=O)N[C@H](C)C(=O)N[C@@H](C(C)C)C(=O)O[C@@H]([C@H](C)CCCCCC)[C@H](CCOC(=O)CC(c2ccccc2)(c2ccccc2)c2ccccc2)C(=O)N1"
  log10 of IC50: 0.58
- compound: "C=C1/C=C/C(=O)NC(C)C(=O)NC(C(C)C)C(=O)O[C@@H]([C@H](C)CCCCCC)[C@H](CCOCc2ccccc2)C(=O)N1 (single isomer, unassigned)"
  log10 of IC50: 0.49
- compound: "CCCCCC[C@@H](C)[C@@H]1OC(=O)[C@H](C(C)C)NC(=O)[C@@H](C)NC(=O)/C=C/[C@H](CO)NC(=O)[C@H]1CCOCc1ccccc1"
  log10 of IC50: 1.53
- compound: "C=C1/C=C/C(=O)NCC(=O)N[C@@H](C(C)C)C(=O)O[C@@H]([C@H](C)CCCCCC)[C@H](CCO[Si](c2ccccc2)(c2ccccc2)C(C)(C)C)C(=O)N1"
  log10 of IC50: 0.36
- compound: "C=C1/C=C/C(=O)N[C@H](C)C(=O)N[C@@H](C(C)C)C(=O)O[C@@H]([C@H](C)CCCCCC)[C@H](CCOC(=O)OC(C)(C)C)C(=O)N1"
  log10 of IC50: 0.73
- compound: "C#CCCCCCCCCC(=O)OCC[C@@H]1C(=O)N[C@@H](CO)/C=C/C(=O)N[C@H](C)C(=O)N[C@@H](C(C)C)C(=O)O[C@H]1[C@H](C)CCCCCC"
  log10 of IC50: 1.25
- compound: "C=C1/C=C/C(=O)N[C@H](C)C(=O)N[C@@H](C(C)C)C(=O)O[C@@H]([C@H](C)CCCCCC)[C@H](CCOCc2ccc(OC)cc2)C(=O)N1"
  log10 of IC50: 0.40
- compound: "C=C1/C=C/C(=O)N[C@H](C)C(=O)N[C@@H](C(C)C)C(=O)O[C@@H]([C@H](C)CCCCCC)[C@H](CCOC(=O)C23CC4CC(CC(C4)C2)C3)C(=O)N1"
  log10 of IC50: 0.89
- compound: "C=C1/C=C/C(=O)N[C@@H](C)C(=O)N[C@H](C(C)C)C(=O)O[C@H]([C@H](C)CCCCCC)[C@@H](CCO[Si](c2ccccc2)(c2ccccc2)C(C)(C)C)C(=O)N1"
  log10 of IC50: 0.25

----------
Test system: K562
assay explanation: Cytotoxicity against human K562 cells measured after 72 hrs by MTT assay
Type: functional, cell-based
measurement conditions: K562, 72 h
pIC50: −log10 of the molar value.

- test smiles: "C=C1/C=C/C(=O)N[C@H](C)C(=O)N[C@@H](C(C)C)C(=O)O[C@@H]([C@H](C)CCCCCC)[C@H](CCOC(=O)[C@H](Cc2ccccc2)NC(=O)OC(C)(C)C)C(=O)N1"
  value relation sign: "="
  pIC50: 5.23
- test smiles: "C=C1/C=C/C(=O)N[C@H](C)C(=O)N[C@@H](C(C)C)C(=O)O[C@@H]([C@H](C)CCCCCC)[C@H](CCOC(=O)CP(=O)(OCC)OCC)C(=O)N1"
  value relation sign: "="
  pIC50: 5.10
- test smiles: "C=C1/C=C/C(=O)N[C@H](C)C(=O)N[C@@H](C(C)C)C(=O)O[C@@H]([C@H](C)CCCCCC)[C@H](CCOC(=O)CCCCCCCCCCCCCCCCC)C(=O)N1"
  value relation sign: "<"
  pIC50: 4.30
- test smiles: "C=C1/C=C/C(=O)N[C@@H](C)C(=O)N[C@H](C(C)C)C(=O)O[C@@H]([C@H](C)CCCCCC)[C@H](CCOCc2ccc(OC)cc2)C(=O)N1"
  value relation sign: "="
  pIC50: 5.34
- test smiles: "C=C1/C=C/C(=O)N[C@@H](C)C(=O)N[C@H](C(C)C)C(=O)O[C@H]([C@@H](C)CCCCCC)[C@@H](CCO[Si](c2ccccc2)(c2ccccc2)C(C)(C)C)C(=O)N1"
  value relation sign: "="
  pIC50: 5.90
- test smiles: "C=C1/C=C/C(=O)N[C@H](C)C(=O)N[C@@H](C(C)C)C(=O)O[C@@H]([C@H](C)CCCCCC)[C@H](CCO[Si](c2ccccc2)(c2ccccc2)C(C)(C)C)C(=O)N1"
  value relation sign: "="
  pIC50: 6.19
